The following compounds are listed with their measured ΔTm values.
# Tested On: Bromodomain-containing protein 4 (Homo sapiens) (UniProt O60885)
# Stated Conditions: Compound concentration 20.0 uM

Molecular String: CS(=O)(=O)n1cc2c(n1)CN([C@H]1CO[C@H](c3cc(F)ccc3F)[C@@H](N)C1)C2
ΔTm, °C: 1.23
--
Molecular String: Cc1nnn(C)c1-c1cnc2c3cc4cnn(C)c4cc3n([C@H](c3ccccc3)C3CCOCC3)c2c1
ΔTm, °C: 22.9
--
Molecular String: N#C[C@@H]1CCCN1C(=O)[C@@H]1CCCN1C(=O)CCCc1ccccc1
ΔTm, °C: -2.61
--
Molecular String: CS(=O)(=O)Nc1ccc2oc3c(OC(F)F)ccc(C(=O)Nc4c(Cl)cncc4Cl)c3c2c1
ΔTm, °C: -1.02
--
Molecular String: N=C(N)SCc1ccc(CN2C(=O)C(=O)c3cc(Br)cc(Br)c32)cc1
ΔTm, °C: -11.4
--
Molecular String: CNC(=O)c1cnc(N2CCC[C@H](N)C2)nc1Nc1cc(C(C)C)nc(C(C)C)c1
ΔTm, °C: -1.65
--
Molecular String: CNC[C@@H](O)COc1ccc(Cl)c(-c2nc(-c3c(C)noc3C)c(C)c(N3CC4(CCN(C(=O)OC)CC4)C3)n2)c1
ΔTm, °C: -2.53
--
Molecular String: NC(=S)c1cccc(-c2cn(C3CCN(S(=O)(=O)C(F)(F)F)CC3)c3cc(CNC(=O)C4CNC4)ccc23)c1
ΔTm, °C: -0.14
--
Molecular String: COc1ccc(C(=O)C2CCN(CC(=O)N(Cc3nc4c(c(=O)[nH]3)COCC4)CC3CC3)CC2)cc1
ΔTm, °C: -1.61
